Biological target: T1, TNFR1 (Homo sapiens, UniProt P19438)
T1 chain: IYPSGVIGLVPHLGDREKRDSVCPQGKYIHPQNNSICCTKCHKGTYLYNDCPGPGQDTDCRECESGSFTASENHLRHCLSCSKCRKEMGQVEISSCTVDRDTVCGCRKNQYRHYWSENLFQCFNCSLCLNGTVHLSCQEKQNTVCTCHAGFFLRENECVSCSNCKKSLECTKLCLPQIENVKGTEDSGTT
Test: yeast display SC50
measurement-name: apparent Kd (screen) (nM)

binder	apparent Kd (screen), nM
E12C (designed binder) SMEEEVEKAAKCYEKKKKEAIEKHLEKLKAKDKEAAERFLKELEEAAKEYAKDEAKTMSEEEAKRRAKKYKEKVLLSELSEEEQKEIKEAEEKLVRTILKYVEEAAK	0.956
K48N (designed binder) SMEEEVEKAAKEYEKKKKEAIEKHLEKLKAKDKEAAERFLKELEEAANEYAKDEAKTMSEEEAKRRAKKYKEKVLLSELSEEEQKEIKEAEEKLVRTILKYVEEAAK	0.49
K88R (designed binder) SMEEEVEKAAKEYEKKKKEAIEKHLEKLKAKDKEAAERFLKELEEAAKEYAKDEAKTMSEEEAKRRAKKYKEKVLLSELSEEEQKEIREAEEKLVRTILKYVEEAAK	0.49
V74W (designed binder) SMEEEVEKAAKEYEKKKKEAIEKHLEKLKAKDKEAAERFLKELEEAAKEYAKDEAKTMSEEEAKRRAKKYKEKWLLSELSEEEQKEIKEAEEKLVRTILKYVEEAAK	0.49
K23R (designed binder) SMEEEVEKAAKEYEKKKKEAIERHLEKLKAKDKEAAERFLKELEEAAKEYAKDEAKTMSEEEAKRRAKKYKEKVLLSELSEEEQKEIKEAEEKLVRTILKYVEEAAK	0.49
K69S (designed binder) SMEEEVEKAAKEYEKKKKEAIEKHLEKLKAKDKEAAERFLKELEEAAKEYAKDEAKTMSEEEAKRRAKSYKEKVLLSELSEEEQKEIKEAEEKLVRTILKYVEEAAK	0.446

A = V102T (designed binder) SMEEEVEKAAKEYEKKKKEAIEKHLEKLKAKDKEAAERFLKELEEAAKEYAKDEAKTMSEEEAKRRAKKYKEKVLLSELSEEEQKEIKEAEEKLVRTILKYTEEAAK
B = E54W (designed binder) SMEEEVEKAAKEYEKKKKEAIEKHLEKLKAKDKEAAERFLKELEEAAKEYAKDWAKTMSEEEAKRRAKKYKEKVLLSELSEEEQKEIKEAEEKLVRTILKYVEEAAK
Which entry has a larger number for apparent Kd (screen), A or B ? Kindly state the label of the option you pick. B
